subject-of-test: T1, APBA1_1, Q02410
T1 sequence (Q02410 651-752, limits assumed, looked up): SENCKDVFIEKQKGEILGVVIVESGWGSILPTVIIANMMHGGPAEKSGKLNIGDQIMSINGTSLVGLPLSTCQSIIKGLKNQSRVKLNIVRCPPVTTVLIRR
run-description: holdup assay
Set-up: key: below the threshold = too weak to quantify, mostly under pKd 3.1 to 4
setup-conditions: plain residues with an end cap or a label only (N-terminal biotin on a linker: ado-ado)
readout-kind: pKd

binder	observed-value
TFSRRPKTRV [CD226, Q15762]	below the threshold
SGDGKTSVWI [GJC1, P36383]	3.69
GTMFLRETSL [GUCY1A2, P33402]	below the threshold
QRYPGNQTTC [CCL24, O00175]	below the threshold

Where do the numbers come from? From paper PMC9482650.
